Would you mind telling me the reported AC50 of each entry?
# system name: ERK2[2-360(p-T185/p-Y187)]-Avi (Homo sapiens)
# Construct: 400 pM ERK2[2-360(p-T185/p-Y187)]-Avi was added to the plate
# measurement protocol: Biochemical assay (HTRF competition assay)
# Assay type: binding
# assay setup: HTRF competition with Example 15 probe, overnight at RT; read-out: Biochemical qualified AC50
Write down the numeric answer in nM and omit the unit.

Task item: Provide AC50 value for the following molecule: C[C@H]1C[C@@H](C(=O)O)CC[C@@H]1NC(=O)C1(c2ccc(F)cc2)CCN(C(=O)n2c3c(c4ccc(F)cc42)[C@H](c2ccccc2)OCC3)CC1 (single isomer, unassigned) [Example 10a]
Reply: 0.35

Task item: Provide measured AC50 value, entry: `O=Cc1c(C(=O)N2CCC(C(=O)N[C@H]3CNC[C@H]3F)(c3ccc(F)cc3)CC2)c2cc(Cl)ccc2n1CC1CCOCC1`
Reply: 0.48

Task item: Please list AC50 recorded for the molecule CC(C)OC1CCC(C2CN(C(=O)N3CC[C@@](C(=O)N[C@H]4CC[C@H](C(=O)O)C[C@@H]4C)(c4ccc(F)cc4)C[C@@H]3C)c3cc(F)ccc32)CC1 (stereo partly drawn)
Reply: 0.47

###

Would you mind telling me the reported AC50 of each entry?
# system name: ERK2[2-360(p-T185/p-Y187)]-Avi (Homo sapiens, UniProt P28482)
# Construct: 400 pM ERK2[2-360(p-T185/p-Y187)]-Avi was added to the plate
# Sequence (P28482 2-360 limits assumed): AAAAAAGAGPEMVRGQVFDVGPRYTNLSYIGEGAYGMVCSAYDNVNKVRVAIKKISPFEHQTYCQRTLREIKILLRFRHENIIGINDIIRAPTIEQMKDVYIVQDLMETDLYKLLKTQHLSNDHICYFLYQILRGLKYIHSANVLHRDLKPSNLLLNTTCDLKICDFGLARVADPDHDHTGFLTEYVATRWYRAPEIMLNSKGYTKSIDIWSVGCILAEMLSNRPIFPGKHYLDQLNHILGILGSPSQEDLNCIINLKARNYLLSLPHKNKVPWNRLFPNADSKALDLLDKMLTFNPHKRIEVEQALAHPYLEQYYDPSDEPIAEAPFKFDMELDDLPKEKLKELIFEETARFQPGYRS
# measurement protocol: Biochemical assay (HTRF competition assay)
# Assay type: binding
# assay setup: HTRF competition with Example 15 probe, overnight at RT; read-out: Biochemical qualified AC50
// return numeric value only (unit: nM, not printed)

Task item: Supply reported AC50 belonging to this compound: CCc1c(C[C@H]2CC[C@H](OC3CCOCC3)CC2)c2ccc(F)cc2n1C(=O)N1CCC(C(=O)N[C@H]2CC[C@H](C(=O)O)C[C@@H]2C)(c2ccc(F)cc2)CC1 [Example 5]
Reply: 0.7

Task item: Give the reported value of AC50 for this record: Cc1c(C[C@H]2CC[C@H](OC(C)C)CC2)c2ccc(F)cc2n1C(=O)N1CCC(C(=O)N[C@H]2CC[C@H](C(=O)O)C[C@@H]2C)(c2ccc(F)cc2)CC1 [Example 1]
Reply: 0.33

Task item: Output AC50 of C[C@H]1C[C@@H](C(=O)O)CC[C@@H]1NC(=O)C1(c2ccc(F)cc2)CCN(C(=O)n2c3c(c4ccc(F)cc42)[C@@H](c2ccccc2)OCC3)CC1 (single isomer, unassigned) [Example 10b]
Reply: 37

Task item: Determine from records and report AC50 for Cc1c(C(=O)N2CCC(C(=O)N[C@H]3CN(C)C[C@H]3F)(c3ccc(F)cc3)CC2)c2cc(Cl)ccc2n1CC1CCOCC1 [Example 12]
Reply: 1.3

Task item: Give a short answer stating reported AC50 for CO[C@H]1CC[C@H](Cc2c(C)n(C(=O)N3CCC(C(=O)N[C@H]4CC[C@H](C(=O)O)CC4)(c4ccc(F)cc4)CC3)c3cc(F)ccc23)CC1 [Example 1c] .
Reply: 1.3

Task item: Hello, please tell me recorded AC50 for this one: CCc1c(C[C@H]2CC[C@H](OC3CCOCC3)CC2)c2ccc(F)cc2n1C(=O)N1CC[C@@](C(=O)N[C@H]2CC[C@H](C(=O)O)C[C@@H]2C)(c2ccc(F)cc2)C[C@@H]1C [Example 6]
Reply: 0.98

Task item: Report AC50 for CN1CC[C@@H](NC(=O)C2(c3ccccc3)CCN(C(=O)c3c(C=O)n(CC4CCOCC4)c4ccc(Cl)cc34)CC2)C1 [Example 11a]
Reply: 0.87

###

Would you mind telling me the reported AC50 of each entry?
# system name: ERK2[2-360(p-T185/p-Y187)]-Avi (Homo sapiens, UniProt P28482)
# Construct: 400 pM ERK2[2-360(p-T185/p-Y187)]-Avi was added to the plate
# measurement protocol: Biochemical assay (HTRF competition assay)
# Format: binding
# assay setup: HTRF competition with Example 15 probe, overnight at RT; read-out: Biochemical qualified AC50
Hi! Could you send only the number? It should be in nM, unit omitted.

Task item: Return reported AC50. Input compound: CC(C)O[C@H]1CC[C@H](Cn2c(C=O)c(C(=O)N3CCC(C(=O)N[C@H]4CC[C@H](C(=O)O)C[C@@H]4C)(c4ccc(F)cc4)CC3)c3cc(Cl)cnc32)CC1 [Example 11g]
Reply: 0.36

Task item: Assign AC50 to the following record: CN1CC[C@@H](NC(=O)C2(c3ccc(Cl)cc3)CCN(C(=O)c3c(C=O)n(CC4CCOCC4)c4ccc(Cl)cc34)CC2)C1 [Example 11b]
Reply: 0.65

Task item: Give recorded AC50. `Cc1c(C[C@H]2CC[C@H](OC3CCOCC3)CC2)c2ccc(F)cc2n1C(=O)N1CC[C@@](C(=O)N[C@H]2CC[C@H](C(=O)O)C[C@@H]2C)(c2ccc(F)cc2)C[C@@H]1C`
Reply: 0.44

###

For each of the compounds below, state its AC50.
# Tested on: WM793 cells
# measurement protocol: Cell proliferation assay (CellTiter-Glo)
# Format: cell-based
# assay setup: Homo sapiens, WM793, 72 h, 3 d, read-out: Cell proliferation qualified AC50
Provide only the numeric value, understood in µM.

Task item: Quick one: give measured AC50 for CN1C[C@@H](F)[C@@H](NC(=O)C2(c3ccc(F)cc3)CCN(C(=O)c3c(C#N)n(CC4CCOCC4)c4ccc(Cl)cc34)CC2)C1 [Example 11j]
Reply: 0.73

Task item: Identify measured AC50 associated with O=Cc1c(C(=O)N2CCC(C(=O)N[C@H]3CNC[C@H]3F)(c3ccc(F)cc3)CC2)c2cc(Cl)ccc2n1CC1CCOCC1 [Example 14]
Reply: 0.12

Task item: Let me know recorded AC50 for CN1CC[C@@H](NC(=O)C2(c3ccc(Cl)cc3)CCN(C(=O)c3c(C=O)n(CC4CCOCC4)c4ccc(Cl)cc34)CC2)C1 [Example 11b] , thanks.
Reply: 0.22

Task item: Item C[C@H]1C[C@@H](C(=O)O)CC[C@@H]1NC(=O)C1(c2ccc(F)cc2)CCN(C(=O)n2c3c(c4ccc(F)cc42)[C@H](c2ccccc2)OCC3)CC1 (single isomer, unassigned) [Example 10a] : provide AC50
Reply: 0.077

Task item: Identify measured AC50 associated with CCO[C@H]1CC[C@H](Cc2c(C)n(C(=O)N3CCC(C(=O)N[C@H]4CC[C@H](C(=O)O)C[C@@H]4C)(c4ccc(F)cc4)CC3)c3cc(F)ccc23)CC1 [Example 7]
Reply: 0.096

Task item: Please list AC50 recorded for the compound CCc1c(CC2CCOCC2)c2ccc(F)cc2n1C(=O)N1CCC(C(=O)N[C@H]2CC[C@H](C(=O)O)C[C@@H]2C)(c2ccc(F)cc2)CC1 [Example 1h]
Reply: 0.016

Task item: Provide measured AC50 value, entry: CN1C[C@@H](F)[C@@H](NC(=O)C2(c3ccc(F)cc3)CCN(C(=O)c3c(C=O)n(CC4CCOCC4)c4ccc(Cl)cc34)CC2)C1 [Example 13]
Reply: 0.054

Task item: Output measured AC50 for this item: CC(C)O[C@H]1CC[C@H](C2CN(C(=O)N3CC[C@@](C(=O)N[C@H]4CC[C@H](C(=O)O)C[C@@H]4C)(c4ccc(F)cc4)C[C@@H]3C)c3cc(F)ccc32)CC1 (single isomer, unassigned) [Example 4c]
Reply: 0.41

Task item: Identify measured AC50 corresponding to CN1CC(NC(=O)C2(c3ccc(F)cc3)CCN(C(=O)c3c(C=O)n(CC4CCOCC4)c4ccc(Cl)cc34)CC2)C1 [Example 11e]
Reply: 0.29

Task item: Quickly give me recorded AC50 for CC(C)O[C@H]1CC[C@H](Cn2c(C=O)c(C(=O)N3CCC(C(=O)N[C@H]4CC[C@H](C(=O)O)C[C@@H]4C)(c4ccc(F)cc4)CC3)c3cc(Cl)cnc32)CC1 [Example 11g]
Reply: 0.61

Task item: Find the measured AC50 of CCc1c(C[C@H]2CC[C@H](OC3CCOCC3)CC2)c2ccc(F)cc2n1C(=O)N1CCC(C(=O)N[C@H]2CC[C@H](C(=O)O)C[C@@H]2C)(c2ccc(Cl)nc2)CC1 [Example 1k] and report it.
Reply: 0.033

###

# system name: nanobit-large-bit-ERK2 and nanobit-small-bit-PEA15 in WM793 cells (Homo sapiens, UniProt P28482)
# Construct: expressed in transfected cells
# Sequence (P28482 whole entry): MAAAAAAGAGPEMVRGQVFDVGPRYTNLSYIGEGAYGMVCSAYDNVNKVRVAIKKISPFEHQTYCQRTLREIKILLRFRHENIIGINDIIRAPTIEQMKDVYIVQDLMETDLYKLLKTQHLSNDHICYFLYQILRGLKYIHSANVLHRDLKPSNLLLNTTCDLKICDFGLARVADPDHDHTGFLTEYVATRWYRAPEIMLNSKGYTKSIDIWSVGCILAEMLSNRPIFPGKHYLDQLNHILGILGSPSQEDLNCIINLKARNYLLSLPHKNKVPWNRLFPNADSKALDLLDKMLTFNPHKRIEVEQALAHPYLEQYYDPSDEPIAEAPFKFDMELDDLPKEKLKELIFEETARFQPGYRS
# measurement protocol: NanoBiT assay
# Format: cell-based
# assay setup: WM793 nanobit stable cell line, overnight incubation; read-out: NanoBiT qualified absolute AC50
property: AC50 (nM)
Report as a plain number; the unit nM is understood.

Task item: Return AC50 (reported value) for this compound: `CCc1c(C[C@H]2CC[C@H](OC3CCOCC3)CC2)c2ccc(F)cc2n1C(=O)N1CCC(C(=O)N[C@H]2CC[C@H](C(=O)O)CC2(C)C)(c2ccc(F)cc2)CC1`
Reply: 19

Task item: Please supply the value of reported AC50 for the item C[C@H]1C[C@@H](C(=O)O)CC[C@@H]1NC(=O)C1(c2ccc(F)cc2)CCN(C(=O)n2c3c(c4ccc(F)cc42)[C@H](c2ccccc2)OCC3)CC1 (single isomer, unassigned) [Example 10a]
Reply: 88

Task item: Supply reported AC50 belonging to this compound: `Cc1c(C[C@H]2CC[C@H](OC(C)C)CC2)c2ccc(F)cc2n1C(=O)N1CC[C@@](C(=O)N[C@H]2CC[C@H](C(=O)O)C[C@@H]2C)(c2ccc(F)cc2)C[C@@H]1C`
Reply: 270

Task item: Give AC50 for `CCc1c(C[C@H]2CC[C@H](OC3CCOCC3)CC2)c2ccc(F)cc2n1C(=O)N1CC[C@@](C(=O)N[C@H]2CC[C@H](C(=O)O)C[C@@H]2C)(c2ccc(F)cc2)C[C@@H]1C`
Reply: 72

Task item: Specify measured AC50 for `CCc1c(CC2CCOCC2)c2ccc(F)cc2n1C(=O)N1CCC(C(=O)N[C@H]2CC[C@H](C(=O)O)C[C@@H]2C)(c2ccc(F)cc2)CC1` .
Reply: 55
